System: Lipid bilayer
experimentNotes: Binding affinity to DPPG large unilamellar vesicles at 323 kelvin by ITC method
assayReadout: pK

A selection of reference data follows.
# molecule, pK
data = [
    ("CCCCCCCCCC(=O)NCCC(NC(=O)CCCCCCCCC)C(=O)O (stereo not given)", 5.06),
    ("CCCCCCCCCCCC(=O)NCCC(NC(=O)CCCCCCCCCCC)C(=O)O (stereo not given)", 4.52),
    ("CCCCCCCCCCCC(=O)NCC(NC(=O)CCCCCCCCCCC)C(=O)O (stereo not given)", 5.37),
]

Now look at this entry.
### Prompt Find the measured pK: item CCCCCCCCCC(=O)NCC(NC(=O)CCCCCCCCC)C(=O)O (stereo not given) , target or system Lipid bilayer.
### Response 4.5
